System: NF-κB pathway (SEAP) in THP1-Dual cells
ASSAY NOTES: THP-1 Dual cell SEAP assay (L18-MDP stimulated)
Assay type: cell-based
EXPERIMENTAL CONDITIONS: Homo sapiens, THP1-Dual, read-out: NFkB THP1 IC50
Here, each record is paired with measured IC50 data.

Use the examples below as a reference point.
* CCOc1cc2ncc(-c3ccc(N)nc3F)n2cc1S(=O)(=O)C(C)C | > 1000 nM
* COc1cc2ncc(-c3cc(F)c(N)nc3F)n2cc1S(=O)(=O)C(C)(C)CF | > 1000 nM
* CCCS(=O)(=O)Nc1cc(-c2cnc3cc(OC)c(S(=O)(=O)C(C)(C)C)cn23)cnc1N | > 1000 nM
* COc1cc2ncc(-c3cc(N)cc(C#N)c3)n2cc1S(=O)(=O)C(C)(C)C | 50 to 250 nM
* COc1cc2ncc(-c3cc(F)nc(N4CCN(C)CC4)c3)n2cc1S(=O)(=O)C(C)(C)C | 50 to 250 nM
* COc1cc2ncc(-c3cc(F)c(OC)c(NS(C)(=O)=O)c3)n2cc1S(=O)(=O)C(C)(C)C | 50 to 250 nM

Record `COc1cc2ncc(-c3cc(N)c(=O)n(C(F)F)c3)n2cc1S(=O)(=O)C(C)(C)C` , field IC50: > 1000 nM

Record `CC(C)(C)S(=O)(=O)c1ccn2ncc(-c3cc(N)nc(F)c3)c2c1` , field IC50: 50 to 250 nM

Record `COc1cc2ncc(-c3ccc(N)c(OC)c3F)n2cc1S(=O)(=O)C(C)(C)C` , field IC50: > 1000 nM

* * *

TESTED TARGET: GST-RIPK2 fusion protein (human RIPK2 amino acids 1-310) (Homo sapiens (Human), UniProt O43353)
Sequence (O43353 1-310): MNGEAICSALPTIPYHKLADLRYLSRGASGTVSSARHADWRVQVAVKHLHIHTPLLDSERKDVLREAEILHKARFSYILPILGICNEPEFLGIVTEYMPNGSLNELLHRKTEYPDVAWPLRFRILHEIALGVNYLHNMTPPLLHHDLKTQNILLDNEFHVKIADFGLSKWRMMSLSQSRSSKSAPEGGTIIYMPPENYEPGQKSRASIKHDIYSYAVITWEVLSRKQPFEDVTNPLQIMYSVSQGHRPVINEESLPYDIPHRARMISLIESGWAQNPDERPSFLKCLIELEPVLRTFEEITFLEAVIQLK
ASSAY NOTES: RIPK2 binding competition assay (TR-FRET, Tracer 199)
EXPERIMENTAL CONDITIONS: read-out: RIPK2 IC50; RIPK2 binding competition assay
QUANTITY MEASURED: IC50

Record COc1cc2ncc(-c3cc(F)nc(NCC4CCNC(=O)C4)c3)n2cc1S(=O)(=O)C(C)(C)C (centres unmarked) , field IC50: < 1 nM

Record `CCCS(=O)(=O)Nc1cc(-c2cnc3ccccn23)cc(F)c1OC` , field IC50: > 20 nM

* * *

System: NF-κB pathway (SEAP) in THP1-Dual cells
ASSAY NOTES: THP-1 Dual cell SEAP assay (L18-MDP stimulated)
Type: cell-based
EXPERIMENTAL CONDITIONS: Homo sapiens, THP1-Dual, read-out: NFkB THP1 IC50
Here, each record is paired with measured IC50 data.

Use the examples below as a reference point.
- COc1cc2ncc(-c3cc(F)nc(NC[C@H](C)O)c3)n2cc1S(=O)(=O)C(C)(C)C: < 50 nM
- CCCS(=O)(=O)Nc1nc(-c2cnc3cc(OC)c(S(=O)(=O)C(C)(C)C)cn23)ccc1OC(F)(F)F: > 1000 nM
- COc1cc2ncc(-c3cc(F)c(N)nc3F)n2cc1S(=O)(=O)C(C)(C)C: 250 to 1000 nM

Record `COc1cc2ncc(-c3cc(F)c(OCc4ccccc4)c(NS(C)(=O)=O)c3)n2cc1S(=O)(=O)C(C)(C)C` , field IC50: > 1000 nM
